Assay: A CellTox Green Cytotoxicity Assay to monitor cytotoxicity in HepG2 cells - 16 hour (AID 1224876); also: % is scaled to controls: 0 for no effect and ±100 for the full control effect; nearly all actives have a fitted effect of over 45% in size
Conditions: CellTox Green fluorescence; series mostly up to 76.8 µM
Source text: National Center for Advancing Translational Sciences [NCATS] NIH Chemical Genomics Center [NCGC] U.S. Environmental Protection Agency [EPA] National Institutes of Environmental Health Sciences [NIEHS] National Toxicology Program [NTP] Cell-based models are critical for drug discovery. […] Viable cells produce no appreciable increases in fluorescence. Therefore, the fluorescence signal produced by the binding interaction with dead cell DNA is proportional to cytotoxicity. […]
Records with an inconclusive call do not appear. Active and inactive are the calls of the source. Calls follow the shape of the dose curve; as a rule, active = well fitted activation curve with a large enough effect in the repeat runs; inconclusive = weak or mixed curves; inactive = flat fitted curve, though single readings scatter.
ENDPOINT NAME: outcome

c1ccc2c(c1)Cc1ccccc1-2 inactive
CCCCCCO inactive
C=C(C)C(=O)OCC(C)C inactive
O=C(O)/C=C/C(=O)O inactive
C[C@]12CCC(=O)C=C1CC[C@@H]1[C@@H]2[C@@H](O)C[C@@]2(C)[C@H]1CC[C@]2(O)C(=O)CO inactive
CCNC(=S)NCC inactive

Now for a further compound.
Could you tell me which outcome is on file for CC(C)CCCCCCCOC(=O)CCCCC(=O)OCCCCCCCC(C)C ?
inactive

###

Test: Caspase-3/7 induction in CHO-K1 cells by small molecules, qHTS cell viability counter screen (AID 1346979); also: % is scaled to controls: 0 for no effect and ±100 for the full control effect; nearly all actives have a fitted effect of over 35% in size
Conditions: CellTiter-Fluor fluorescence, 17 h; series mostly up to 92.4 µM
Results filed as inconclusive are left out. Active and inactive are the calls of the source. Calls come from the whole dose curve; as a rule, active = well fitted cell-killing curve with a large enough effect in the repeat runs; inconclusive = weak or mixed curves, or effect the other way; inactive = no such curve, though single readings can be large or run the other way.
ENDPOINT NAME: outcome

COMPOUND	outcome
C=C(C)[C@H]1CC=C(C)C(=O)C1	inactive
COc1ccc(N)c(C)c1	inactive
OCc1ccccc1	inactive
CCNc1ccccc1	inactive
Nc1ccc(Cl)c(N)c1	inactive
CN1C(=O)CC[C@H]1c1cccnc1	inactive
C[C@]12CC[C@@H]3c4ccc(O)cc4CC[C@H]3[C@@H]1C[C@@H](O)[C@@H]2O	inactive
O=C(O)/C=C/C(=O)O	inactive

Could you tell me which outcome is on file for O=[N+]([O-])c1ccc2nc[nH]c2c1 ?
inactive

// same read-out, input: CC(C)(Oc1ccc(CCNC(=O)c2ccc(Cl)cc2)cc1)C(=O)O
inactive

###

Experiment: qHTS assay to identify small molecule antagonists of the sonic hedgehog signaling (Shh) pathway - cell viability counter screen (AID 1259367); also: % is scaled to controls: 0 for no effect and ±100 for the full control effect; nearly all actives have a fitted effect of over 55% in size
Conditions: NIH/3T3 Gli1-Luc viability, CellTiter-Fluor, 24 h; series mostly up to 92.4 µM
Text: National Center for Advancing Translational Sciences [NCATS] NIH Chemical Genomics Center [NCGC] U.S. Environmental Protection Agency [EPA] National Institutes of Environmental Health Sciences [NIEHS] National Toxicology Program [NTP] U.S. Food and Drug Administration [FDA] The sonic hedgehog (Shh) pathway is essential for normal embryonic development. Dysregulation of the Shh pathway can cause severe developmental defects in organs. […]
Inconclusive results are not listed. Active and inactive are the calls of the source. The call rests on the fitted dose curve; in most records, active means well fitted cell-killing curve with a large enough effect in the repeat runs; inconclusive means weak or mixed curves, or effect the other way; inactive means no such curve, though single readings can be large or run the other way.
ENDPOINT NAME: outcome

CSc1ccc(Cl)cc1 inactive
O=C(O)c1ccccc1C(=O)O inactive
C=CCCCCCCCCC(=O)O inactive

###

Target: Progesterone receptor (Homo sapiens)
Test: qHTS assay to identify small molecule antagonists of the progesterone receptor (PR) signaling pathway (AID 1346795)
Settings: PR-UAS-bla HEK293T, beta-lactamase FRET ratio, 16 h; series mostly up to 92.4 µM
Inconclusive results are not listed. The source made the active and inactive calls. The call rests on the fitted dose curve; in most records, active means well fitted inhibition curve with a large enough effect in the signal ratio in the repeat runs (not every such curve was filed as active); inconclusive means weak or mixed curves; inactive means flat fitted curve, though single readings scatter; the % refers to the signal ratio.
Answer with one of the outcomes T (active), F (inactive)

The examples below pair each entry with its known result.
MOLECULE	ASSIGNED CLASS
O=[N+]([O-])c1ccc2nc[nH]c2c1	F
CN(C)c1ccc(O)c2c1C[C@H]1C[C@H]3[C@H](N(C)C)C(=O)C(C(N)=O)=C(O)[C@@]3(O)C(=O)C1=C2O	F

Answer briefly: the call reported for CC(CCl)OP(=O)(OC(C)CCl)OC(C)CCl (centres undefined) in this assay.
T

###

Test: qHTS assay to test for compound auto fluorescence at 590 nm (red) in HepG2 cell free culture (AID 720684); also: % is scaled to controls: 0 for no effect and ±100 for the full control effect
Conditions: cell-free medium autofluorescence, red 540/590 nm; series mostly up to 91.3 µM
Source text: U.S. Tox21 Program National Center for Advancing Translational Sciences [NCATS] NIH Chemical Genomics Center [NCGC] U.S. Environmental Protection Agency [EPA] National Institutes of Environmental Health Sciences [NIEHS] National Toxicology Program [NTP] U.S. Food and Drug Administration [FDA] Tox21 Assay Overview: Compound auto fluorescence often interferes with screening of the compound library against various biological targets and signaling pathways. […] This assay includes the red fluorescence data. […]
The source made the active and inactive calls. The call rests on the fitted dose curve; in most records, active means well fitted curve in the direction sought with a large enough effect in the repeat runs; inconclusive means weak or mixed curves; inactive means flat fitted curve, though single readings scatter.
ENDPOINT NAME: outcome

Worked cases, outcome given:
Cc1ccc2ncccc2c1 inactive
CC(C)(C#N)c1cc(Cn2cncn2)cc(C(C)(C)C#N)c1 inactive
Cc1ccc(S(=O)(=O)N=C=O)cc1 inactive
CN(C)CCOC(=O)COc1ccc(Cl)cc1 inactive
CCNC(=S)NCC inactive
COc1cc(OC)c(C(=O)CCCN2CCCC2)c(OC)c1 inactive
NCCNCCN inactive
CCCCCCCCCCN inactive

Could you tell me which outcome is on file for CN1C(=O)CC[C@H]1c1cccnc1 ?
inactive

###

Assay: qHTS RealTime-Glo MT Cell Viability Assay in HepG2 cells - 24 hour (AID 1224867); also: nearly all actives have a fitted effect of over 50% in size
Conditions: RealTime-Glo luminescence; series mostly up to 76.8 µM
Results filed as inconclusive are left out. Calls of active or inactive are those of the source. The call rests on the fitted dose curve; in most records, active means well fitted cell-killing curve with a large enough effect in the repeat runs; inconclusive means weak or mixed curves; inactive means flat fitted curve, though single readings scatter.
Answer with one of the outcomes active, inactive

The examples below pair each entry with its known result.
COMPOUND	ASSIGNED CLASS
O=C(O)Cn1c(=O)n(Cc2ccc(Br)cc2F)c(=O)c2ccc(Cl)cc21	active
CC(=O)CC(C)(C)O	inactive
O=C(O)CCCCCCCCC(=O)O	inactive

Answer briefly: the call reported for CC(C)c1cccc(C(C)C)c1 in this assay.
inactive

// same read-out, input: O=S(=O)(O)c1ccccc1
inactive

// same read-out, input: CC(C)(C#N)c1cc(Cn2cncn2)cc(C(C)(C)C#N)c1
inactive

// same read-out, input: OCc1ccccc1
inactive

// same read-out, input: CC(O)CC(C)(C)O (stereo not drawn)
inactive

// same read-out, input: COc1ccc(C)cc1N
inactive

// same read-out, input: CCCCCCCCCCO
inactive

// same read-out, input: CCNc1cccc(C)c1
inactive

###

Biological target: Cytochrome P450 1A2 (Homo sapiens)
Test: Cytochrome P450 Family 1 Subfamily A Member 2 (CYP1A2) small molecule antagonists: luciferase reporter qHTS assay (AID 1671199); also: nearly all actives have a fitted effect of over 50% in size
Conditions: P450-Glo CYP1A2 enzyme, luciferin luminescence, 1 h; series mostly up to 115 µM
Results filed as inconclusive are left out. Calls of active or inactive are those of the source. Calls come from the whole dose curve; as a rule, active = well fitted inhibition curve with a large enough effect in the repeat runs; inconclusive = weak or mixed curves; inactive = no such curve, though single readings can be large or run the other way.
Answer with one of the outcomes 1 = active, -1 = inactive

COMPOUND	ASSIGNED CLASS
CC1(C)S[C@@H]2[C@H](NC(=O)COc3ccccc3)C(=O)N2[C@H]1C(=O)O	-1

Answer briefly: the call reported for COc1ccc(C)cc1N in this assay.
1

// same read-out, input: C=CC(C)CCCC(C)(C)O (stereo unspecified)
1

###

Assay: qHTS assay for small molecule disruptors of the mitochondrial membrane potential (AID 720635)
Conditions: HepG2 mitochondrial membrane potential, Mito-MPS dye ratio; series mostly up to 83.2 µM
Inconclusive results are not listed. Activity calls are given as the source filed them. Calls come from the whole dose curve; as a rule, active = well fitted inhibition curve with a large enough effect in the signal ratio in the repeat runs; inconclusive = weak or mixed curves, or effect the other way; inactive = flat fitted curve, though single readings scatter; the % refers to the signal ratio.
Answer with one of the outcomes active, inactive

MOLECULE	ASSIGNED CLASS
Cc1ccc(S(=O)(=O)N=C=O)cc1	inactive
COc1ccc(OC)cc1	inactive
O=C(OCC1CCC2OC2C1)C1CCC2OC2C1 (stereo not given)	inactive
c1ccc(Oc2ccccc2)cc1	inactive
O=C(O)CCCCCCCCC(=O)O	inactive
CC1(C)CC(N)CC(C)(CN)C1 (stereo not given)	inactive
COCCCN	inactive
C=C(C)C(=O)OCC(C)C	inactive
CCCCCCCCCCCCCCCCO	inactive
Nc1ccc(Cl)c(N)c1	active

Answer briefly: the call reported for CCO[Si](CCCN)(OCC)OCC in this assay.
inactive

// same read-out, input: O=C(O)c1ccc(C(=O)O)c(C(=O)O)c1
inactive

// same read-out, input: CN/C(=C\[N+](=O)[O-])NCCSCc1csc(CN(C)C)n1
inactive

// same read-out, input: Clc1ccccn1
inactive

// same read-out, input: CCCOC(=O)c1ccccc1
inactive

// same read-out, input: COc1ccc([N+](=O)[O-])cc1N
active

###

Biological target: Cytochrome P450 2D6 (Homo sapiens) (UniProt P10635)
Sequence (P10635 whole entry, looked up): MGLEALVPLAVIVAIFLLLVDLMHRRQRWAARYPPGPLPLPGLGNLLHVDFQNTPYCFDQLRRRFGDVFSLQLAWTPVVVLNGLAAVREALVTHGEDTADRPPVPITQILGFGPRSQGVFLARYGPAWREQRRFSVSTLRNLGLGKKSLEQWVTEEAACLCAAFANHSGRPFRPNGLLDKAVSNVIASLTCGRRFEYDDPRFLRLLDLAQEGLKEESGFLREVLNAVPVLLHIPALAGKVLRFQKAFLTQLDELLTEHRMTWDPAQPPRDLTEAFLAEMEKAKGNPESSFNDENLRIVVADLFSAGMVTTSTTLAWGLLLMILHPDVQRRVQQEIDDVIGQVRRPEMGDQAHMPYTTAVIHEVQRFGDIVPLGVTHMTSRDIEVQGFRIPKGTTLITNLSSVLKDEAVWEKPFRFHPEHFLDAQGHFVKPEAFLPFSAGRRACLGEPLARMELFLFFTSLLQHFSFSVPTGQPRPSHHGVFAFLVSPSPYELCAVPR
Assay: Cytochrome P450 Family 2 Subfamily D Member 6 (CYP2D6) small molecule antagonists: luciferase reporter qHTS assay (AID 1671196); also: nearly all actives have a fitted effect of over 50% in size
Settings: P450-Glo CYP2D6 enzyme assay, luciferin luminescence, 1 h; series mostly up to 115 µM
Results filed as inconclusive are left out. The source made the active and inactive calls. The call rests on the fitted dose curve; in most records, active means well fitted inhibition curve with a large enough effect in the repeat runs; inconclusive means weak or mixed curves; inactive means no such curve, though single readings can be large or run the other way.
Answer with one of the outcomes y for active, n for inactive

The examples below pair each entry with its known result.
MOLECULE	TESTED TARGET	ASSIGNED CLASS
CC(C)(C#N)c1cc(Cn2cncn2)cc(C(C)(C)C#N)c1	Cytochrome P450 2D6 (Homo sapiens) (UniProt P10635)	n
CC(C)CC(C)O (stereo not given)	Cytochrome P450 2D6 (Homo sapiens) (UniProt P10635)	n
CNC(=S)N(C)C	Cytochrome P450 2D6 (Homo sapiens) (UniProt P10635)	n
C=CC(C)CCCC(C)(C)O (stereo not given)	Cytochrome P450 2D6 (Homo sapiens) (UniProt P10635)	y
CCCCCCCO	Cytochrome P450 2D6 (Homo sapiens) (UniProt P10635)	n

Answer briefly: the call reported for CCCCCCO in this assay.
n

// same read-out, input: CCNc1cccc(C)c1
n

// same read-out, input: N#Cc1ccccc1
n

// same read-out, input: Clc1ccccn1
n

// same read-out, input: CC(=O)OCc1ccco1
n
